- experiment-description: NCI Yeast Anticancer Drug Screen. Data for the rad50 strain (AID 155);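 further: 0% = growth of vehicle-only cultures of the same strain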
- condition: S. cerevisiae rad50 strain growth inhibition; at 33.0 µM
Compounds without any hit were thinned out: in the full panel of roughly 79,000, 15% have a hit. Active and inactive are the calls of the source. No stated cut-off is given here; in the data, active means growth inhibition above about 70%; inactive means the rest.
Return exactly one item of T for active, F for inactive

[N-]=[N+]=NC(c1ccccc1)(c1ccccc1)c1ccccc1
F

Query: Outcome logged for `Cc1cccc2c1N=C(C(F)(F)F)CC2=O` in this assay:
Result: F

Query: Could you kindly confirm the outcome this assay logged for `O/N=C/C1c2ccccc2-c2ccccc21` ?
Result: F

Query: Assay result, entry `O=C1c2ccccc2C(=O)c2cc(S(=O)(=O)Nc3ccccc3)ccc21` — outcome?
Result: F

Query: Which result was noted for this molecule in the test: `CCc1[nH]nc(C(N)=O)c1N=NN(C)C`
Result: T

Query: Please indicate how the test categorized `N#C/C(=C1C=C(Br)/C(=N\O)C=C\1Cl)c1cccc2ccccc12` .
Result: T

Query: For `CC(=O)N1C(=O)/C(=C\C(=O)c2ccc(Cl)cc2)c2ccccc21` , what call appears in the results of this test?
Result: T

Query: How was `O=C(Nc1cccc(C(F)(F)F)c1)Oc1ccc(Cl)cc1C(=O)c1ccccc1` classified in this test?
Result: T

Query: Write down the call the test reported for this molecule. Item: CC(=O)[C@]1(O)Cc2c(O)c3c(c(O)c2[C@@H](OC2CC(N)C(O)C(C)O2)C1)C(=O)c1c(OCc2ccccc2)cccc1C3=O (stereo partly drawn)
Result: T

* * *

Provide the recorded growth inhibition for the entries that follow.
- experiment-description: NCI Yeast Anticancer Drug Screen. Data for the rad50 strain (AID 155);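 further: 0% = growth of vehicle-only cultures of the same strain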
- condition: S. cerevisiae rad50 strain growth inhibition; at 11.0 µM; stronger effect = higher value
This is part of a sample that, as a whole, favours compounds with a hit. Of some 79,000 tested, about 15% had one in any assay. Active and inactive are the calls of the source. No stated cut-off is given here; in the data, active means growth inhibition above about 70%; inactive means the rest.

CCN(CC)CC(O)C1CCC(c2ccccc2)CC1 (stereo not drawn)
22% (inactive)
Nc1nc(F)nc2c1ncn2C1OC(COP(=O)(O)O)C(O)C1O (stereo not drawn)
18% (inactive)

Could you now consider this next compound?
Query: Field request: growth inhibition | item: COc1ccc(N2C(=O)CC(Cl)C2=O)cc1 (stereo not drawn)
Result: 15% (inactive)

* * *

- experiment-description: NCI Yeast Anticancer Drug Screen. Data for the cln2 rad14 strain (AID 165);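 further: 0% = growth equal to vehicle treated cultures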
- condition: S. cerevisiae cln2 rad14 strain, at 50.0 µM (retest, dose inferred, filed as 5.0), stronger effect = higher value
Compounds without any hit were thinned out: in the full panel of roughly 79,000, 15% have a hit.
growth inhibition class ranges: low value = under 30%, medium value = from 30% up to 90%, high value = 90% and over

CCC(=O)N(c1ccccc1)C(C)CN1CCC(O)(c2cccc(C(F)(F)F)c2)CC1 (stereo not drawn)
medium value
Cc1ccc(I)cc1N=C=S
high value
CCCCCCCCCCCCCC(=O)OC(C)CCC1CCCO1 (stereo not drawn)
medium value

Query: Which bin should I file `Cc1c2cc[n+](CCN3CCCCC3)cc2c(C)c2c1[nH]c1ccc(O)cc12` under?
Result: low value

Query: Into which category would you place `Oc1ccc(C=Nc2ccccc2O)cc1` ?
Result: medium value

Query: Kindly identify the class of `CN=C(N)N/N=C(\C)c1ccc2oc3ccc(/C(C)=N/NC(N)=NC)cc3c2c1` .
Result: high value

Query: Which class does `Cn1c2nc3ccccc3c-2nc2ccccc21` fall in?
Result: high value

Query: Hey, which category is `NC(N)=N/N=C/c1cc(Cl)cc(Cl)c1O` in, do you know?
Result: high value

Query: Lab note: which band did `COc1ccc2oc(-c3ccc(Cl)cc3)c(N3CCN(C)CC3)c2c1` land in?
Result: high value

Query: Lab log: CCOC(=O)C(NC(=O)CC)(N1CCN(c2cc3c(cc2F)c(=O)c(C(=O)O)cn3C2CC2)CC1)C(F)(F)F (stereo not drawn) — assign growth inhibition category
Result: low value

Query: Kindly identify the class of `CC[C@@]1(OC(=O)CCC(=O)O)C(=O)OCc2c1cc1n(c2=O)Cc2cc3ccccc3nc2-1` .
Result: medium value

Query: The entry to classify is `COc1cc(N(C)C)ccc1/C=C\c1ccnc2ccccc12` ; which class holds it?
Result: low value

Data provenance is PubChem BioAssay (NCI).
